Tested Target: wt human NUAK1, full length (Homo sapiens)
Value Type: IC50

# Chemical Smiles, Value Type, Observed
rows = [
    ("Fc1ccc2c(c1)-c1[nH]ncc1N=C(c1c(F)cccc1Cl)N2", "IC50", "10 to 100 nM"),
    ("Fc1cccc(F)c1C1=Nc2cn[nH]c2-c2ccccc2N1", "IC50", "100 to 1000 nM"),
]

According to the records, this compound Cc1ccc2c(c1)-c1n[nH]cc1NC(c1c(F)ccc(C(F)(F)F)c1F)=N2 displays IC50 of 100 to 1000 nM

###

Tested Target: wt human TYK2, catalytic site (Homo sapiens, UniProt P29597)
Construct: 2 nM wt human TYK2, catalytic site (SignalChem/CAN)
Experiment: HTRF KinEASE assay, TYK2
Conditions: 1 μM ATP; read-out: IC50, inhibitory activity toward TYK2
Value Type: IC50

Worked cases, IC50 given:
# Chemical Smiles, IC50
records = [
    ("Cc1cnc2c(c1)-c1[nH]ncc1N=C(c1c(F)cccc1F)N2", "100 to 1000 nM"),
    ("Cc1ccc2c(c1)-c1[nH]ncc1NC(c1c(Cl)ccc(F)c1F)=N2", "100 to 1000 nM"),
    ("O=C(NCCF)c1cc2c(cc1F)-c1n[nH]cc1N=C(c1c(F)cccc1F)N2", "10 to 100 nM"),
    ("Cc1cc2c(cc1C(=O)O)NC(c1c(F)cccc1F)=Nc1cn[nH]c1-2", "10 to 100 nM"),
    ("NC(=O)c1ccc2c(c1)-c1[nH]ncc1NC(c1c(F)cccc1F)=N2", "100 to 1000 nM"),
]

We next turn to a different compound, shown below.
What the record says about CC(C)Oc1cc2c(cc1F)-c1n[nH]cc1N=C(c1c(F)cccc1Cl)N2 : IC50 is 10 to 100 nM

###

Tested Target: wt human NUAK1, full length (Homo sapiens)
Construct: 8 nM wt human NUAK1, full length (ThermoFisher/USA); purchased ThermoFisher/USA
Sequence (O60285 1-661): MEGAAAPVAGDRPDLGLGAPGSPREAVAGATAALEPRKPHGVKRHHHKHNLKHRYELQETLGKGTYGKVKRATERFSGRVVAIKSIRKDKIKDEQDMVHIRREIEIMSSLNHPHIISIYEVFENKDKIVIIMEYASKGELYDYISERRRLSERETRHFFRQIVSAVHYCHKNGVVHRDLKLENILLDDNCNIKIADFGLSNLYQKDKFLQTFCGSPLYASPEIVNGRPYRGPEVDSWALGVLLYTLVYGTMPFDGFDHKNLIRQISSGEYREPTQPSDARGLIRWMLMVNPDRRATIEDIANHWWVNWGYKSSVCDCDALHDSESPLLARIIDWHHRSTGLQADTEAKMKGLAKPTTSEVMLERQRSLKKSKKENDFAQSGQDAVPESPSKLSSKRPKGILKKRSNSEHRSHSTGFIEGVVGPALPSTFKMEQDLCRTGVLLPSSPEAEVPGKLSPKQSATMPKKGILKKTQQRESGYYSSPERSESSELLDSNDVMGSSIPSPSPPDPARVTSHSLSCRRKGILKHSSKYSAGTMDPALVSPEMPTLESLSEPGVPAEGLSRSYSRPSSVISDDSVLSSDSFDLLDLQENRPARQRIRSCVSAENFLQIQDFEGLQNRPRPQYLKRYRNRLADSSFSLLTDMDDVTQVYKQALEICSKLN
Experiment: TR-FRET LanthaScreen Eu Kinase Binding Assay, NUAK1
Conditions: 5 nM Kinase Tracer 236; read-out: IC50, inhibitory activity toward NUAK1
Exercise: for every item that follows, state its recorded IC50.

The cases that follow already have their IC50 on record.
# Chemical Smiles, Tested Target, IC50
data = [
    ("Cc1ccc2c(c1)-c1[nH]ncc1NC(c1c(F)ccc(F)c1Cl)=N2", "wt human NUAK1, full length (Homo sapiens)", "100 to 1000 nM"),
    ("Fc1ccccc1-c1ccc2c(c1)N=C(c1c(F)cccc1F)Nc1c[nH]nc1-2", "wt human NUAK1, full length (Homo sapiens)", "10 to 100 nM"),
]

# evaluate next
Summary for this molecule, Fc1cccc(Cl)c1C1=Nc2ccccc2-c2[nH]ncc2N1 : IC50 is 10 to 100 nM

###

Kindly supply the reported IC50 values for the records listed here.
Tested Target: wt human TYK2, catalytic site (Homo sapiens, UniProt P29597)
Construct: 2 nM wt human TYK2, catalytic site (SignalChem/CAN)
Sequence (P29597 897-1176 limits assumed): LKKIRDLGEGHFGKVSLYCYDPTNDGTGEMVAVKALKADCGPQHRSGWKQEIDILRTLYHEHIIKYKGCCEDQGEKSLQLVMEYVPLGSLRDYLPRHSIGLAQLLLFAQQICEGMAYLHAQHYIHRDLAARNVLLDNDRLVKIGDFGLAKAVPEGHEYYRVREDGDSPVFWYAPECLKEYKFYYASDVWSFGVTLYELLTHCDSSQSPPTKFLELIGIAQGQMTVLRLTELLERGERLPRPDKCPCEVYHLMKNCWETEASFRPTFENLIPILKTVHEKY
Experiment: HTRF KinEASE assay, TYK2
Conditions: 1 μM ATP; read-out: IC50, inhibitory activity toward TYK2

Below, 3 compounds whose answers are already recorded.
# Chemical Smiles, Value Type, Observed
records = [
    ("Fc1cccc(F)c1C1=Nc2cn[nH]c2-c2ccccc2N1", "IC50", "10 to 100 nM"),
    ("Fc1cccc(Cl)c1C1=Nc2cn[nH]c2-c2cc(OC(F)F)ccc2N1", "IC50", "100 to 1000 nM"),
    ("Fc1ccccc1-c1ccc2c(c1)N=C(c1c(F)cccc1Cl)Nc1c[nH]nc1-2", "IC50", "10 to 100 nM"),
]

Dear colleague, could you send me IC50 for each of the items below? Thanks.
1. Fc1cccc(F)c1C1=Nc2ccncc2-c2[nH]ncc2N1
2. Fc1cccc(Cl)c1C1=Nc2cc(-c3ccn[nH]3)ccc2-c2[nH]ncc2N1
3. COc1ccc2c(c1)N=C(c1c(F)cccc1Cl)Nc1cn[nH]c1-2
4. Cc1ccc2c(c1)-c1[nH]ncc1NC(c1c(F)ccc(F)c1F)=N2
5. Fc1cccc(F)c1C1=Nc2cn[nH]c2-c2cn(C3CCOCC3)nc2N1
6. O=C(O)c1ccc2c(c1)N=C(c1c(F)cccc1F)Nc1cn[nH]c1-2
7. NC(=O)c1ccc2c(c1)-c1[nH]ncc1N=C(c1c(F)cccc1Cl)N2

Output:
["10 to 100 nM", "10 to 100 nM", "10 to 100 nM", "100 to 1000 nM", "100 to 1000 nM", "< 10 nM", "100 to 1000 nM"]

###

Tested Target: wt human TYK2, catalytic site (Homo sapiens)
Construct: 2 nM wt human TYK2, catalytic site (SignalChem/CAN)
Experiment: HTRF KinEASE assay, TYK2
Conditions: 1 μM ATP; read-out: IC50, inhibitory activity toward TYK2
pIC50: −log10 of the molar value.
Value Type: pIC50

# Chemical Smiles, pIC50
records = [
    ("COc1cccc(F)c1C1=Nc2cn[nH]c2-c2ccccc2N1", "6.00 to 7.00"),
    ("COc1cccc(F)c1C1=Nc2cn[nH]c2-c2cccnc2N1", "6.00 to 7.00"),
    ("Cc1ccc2c(c1)-c1[nH]ncc1NC(c1c(Cl)ccc(Br)c1F)=N2", "6.00 to 7.00"),
    ("Fc1cc2c(cc1OC1CCOCC1)N=C(c1c(F)cccc1Cl)Nc1c[nH]nc1-2", "> 8.00"),
    ("CC(=O)Nc1cccc(-c2ccc3c(c2)N=C(c2c(F)cccc2F)Nc2cn[nH]c2-3)c1", "> 8.00"),
]

Give one value of pIC50 per listed compound.
1. CN1CCN(c2ncc3c(n2)N=C(c2c(F)cccc2F)Nc2c[nH]nc2-3)CC1
2. Fc1ccc2c(c1F)N=C(c1c(F)cccc1F)Nc1cn[nH]c1-2
3. Fc1cc2c(cc1-c1cccnn1)N=C(c1c(F)cccc1F)Nc1c[nH]nc1-2

Output:
1: 7.00 to 8.00; 2: 6.00 to 7.00; 3: 7.00 to 8.00

Provide each entry's pIC50 from the list below.
1. O=C(c1ccc2c(c1)N=C(c1c(F)cccc1Cl)Nc1cn[nH]c1-2)N1CCOCC1
2. Fc1cccc(F)c1C1=Nc2ccccc2-c2[nH]nc(Cl)c2N1

Output:
1: 6.00 to 7.00; 2: 7.00 to 8.00

###

Task for the reader: assign each of the following compounds its reported pIC50.
Tested Target: wt human TYK2, catalytic site (Homo sapiens, UniProt P29597)
Construct: 2 nM wt human TYK2, catalytic site (SignalChem/CAN)
Experiment: HTRF KinEASE assay, TYK2
Conditions: 1 μM ATP; read-out: IC50, inhibitory activity toward TYK2
pIC50: −log10 of the molar value.

Examples from the recorded data:
# Chemical Smiles, Tested Target, Observed
rows = [
    ("Cc1ccc2c(c1)-c1[nH]ncc1N=C(c1c(C)cccc1F)N2", "wt human TYK2, catalytic site (Homo sapiens, UniProt P29597)", "6.00 to 7.00"),
    ("O=C(NC1CCOCC1)c1ccc2c(n1)N=C(c1c(F)cccc1F)Nc1cn[nH]c1-2", "wt human TYK2, catalytic site (Homo sapiens, UniProt P29597)", "7.00 to 8.00"),
]

For every item below, please supply its pIC50.
1. Cc1ccc2c(c1)-c1[nH]nc(Cl)c1NC(c1c(F)cccc1F)=N2
2. Fc1cc2c(cc1OC1CCCC1)N=C(c1c(F)cccc1Cl)Nc1c[nH]nc1-2
3. O=C(c1ccc2c(c1)N=C(c1c(Cl)cccc1Cl)Nc1cn[nH]c1-2)N1CCOCC1
4. Fc1ccccc1-c1ccc2c(c1)N=C(c1c(Cl)cccc1Cl)Nc1c[nH]nc1-2
5. Fc1cccc(Cl)c1C1=Nc2ncccc2-c2[nH]ncc2N1

Output:
["6.00 to 7.00", "7.00 to 8.00", "6.00 to 7.00", "> 8.00", "7.00 to 8.00"]

Quick note, pIC50 for Fc1cc2c(cc1OC1CCOCC1)N=C(c1c(F)cccc1F)Nc1c[nH]nc1-2 landed at 7.00 to 8.00
